Data provenance: PubChem BioAssay AID328

Tested on: BDF1 mice, P388 leukemia ip, median survival T/C
Assay: NCI In Vivo Anticancer Drug Screen. Data for tumor model P388 Leukemia (intraperitoneal) in B6D2F1 (BDF1) mice
Details: endpoint: median survival time; dose: 400.0 mg/kg/injection; schedule: Q01DX009 (ip); vehicle: saline; higher = longer survival
Inconclusive results and toxic doses are left out.
ATTRIBUTE_MEASURED: T/C

Here's what some known entries look like.
O=C1CC=C(Nc2ccc(Br)cc2)C(=O)O1 :: 99 % of control
COC(=O)C(NC=O)C(=O)OC :: 100 % of control
COc1ccc(/C=C/C(C)=O)cc1OC :: 108 % of control

Given the entry `O=S(=O)(O)C1(O)CCCCC1` , report its measured T/C.
105 % of control

Entry to check: `COC(=O)C(C)C(=O)OC`
109 % of control

Entry to check: `NC(=O)n1nccc1N`
90 % of control

Entry to check: `CC(=O)Nc1ccc(C(=O)O)c([N+](=O)[O-])c1`
101 % of control

Entry to check: `O=C1NC(=O)C(=O)N1`
100 % of control

----------
Test system: BDF1 mice, P388 leukemia ip, median survival T/C
Assay: NCI In Vivo Anticancer Drug Screen. Data for tumor model P388 Leukemia (intraperitoneal) in B6D2F1 (BDF1) mice
Conditions: endpoint: median survival time; dose: 30.0 mg/kg/injection; schedule: Q01DX009 (ip); vehicle: saline with Tween-80
Toxic doses and inconclusive results are not listed. How the source made its calls: active means survival T/C of 150% or more; inactive means T/C below 125% in these data.
Response enum: active, inactive

O=NN(CCCl)C(=O)NC1CCC(NC(=O)N(CCCl)N=O)CC1 (stereo not given) :: active
O=[N+]([O-])c1ccc(N2CCCCCC2)c2c1no[n+]2[O-] :: inactive
O=[N+]([O-])c1ccc(SCc2ccccc2)c2c1no[n+]2[O-] :: inactive
Cc1ccc(NC2=CC(=O)C(=O)C=C2Nc2ccc(C)cc2)cc1 :: inactive

Kindly consider the entry below.
# lookup: test call for `CNC(=N)c1ccc(NC(=N)c2ccc(NC(=N)c3ccc(NC(=N)c4ccc(C(=N)NC)cc4)cc3)cc2)cc1`
active

----------
Test system: BDF1 mice, P388 leukemia ip, median survival T/C
Test: NCI In Vivo Anticancer Drug Screen. Data for tumor model P388 Leukemia (intraperitoneal) in B6D2F1 (BDF1) mice
Conditions: endpoint: median survival time; dose: 12.5 mg/kg/injection; schedule: Q04DX003 (ip); vehicle: saline
Toxic doses and inconclusive results are not listed. Rule for the calls: active = survival T/C of 150% or more; inactive = T/C below 125% in these data.
Response enum: active, inactive

Past entries and their recorded results:
CCCCCCC(C)[N+](C)(C)C (configuration not stated) :: inactive
C=CCOB(OCC=C)OCC=C :: inactive
CC[N+](CC)(CC)CC :: inactive
O=C(O/N=C1\C2CCC(C2)C1Cl)c1ccc([N+](=O)[O-])cc1 (configuration not stated) :: inactive
CCCCCCCCOP(=O)(N1CC1)N1CC1 :: active
NCCc1ccc(OCc2ccccc2)c(OCc2ccccc2)c1 :: inactive

# lookup: test call for `Cc1ccc(NCCNCC(C)(C)O)c2c(=O)c3ccccc3sc12`
inactive

----------
System: BDF1 mice, P388 leukemia ip, median survival T/C
Test: NCI In Vivo Anticancer Drug Screen. Data for tumor model P388 Leukemia (intraperitoneal) in B6D2F1 (BDF1) mice
Settings: endpoint: median survival time; dose: 100.0 mg/kg/injection; schedule: Q01DX009 (ip); vehicle: Klucel (hydroxypropylcellulose) (HPC)
Toxic doses and inconclusive results are not listed. How the source made its calls: active means survival T/C of 150% or more; inactive means T/C below 125% in these data.
Response enum: YES (active), NO (inactive)

COc1cc2cc3c4cc(OC)c(OC)cc4cc[n+]3c(C)c2cc1OC :: YES

# lookup: test call for `Nc1ccc(C(=O)Nc2ccc(Nc3ccncc3)cc2)cc1`
NO

Entry to check: `O=C(NNC(=O)OCc1ccccc1)OCc1ccccc1`
NO

Entry to check: `CCCCCCOP(=O)(CCCCCC)OCCCCCC`
NO

Entry to check: `Cc1c(C)c(Cl)c(C)c(Cl)c1O`
NO

Entry to check: `CO/N=C/c1ccc([N+](=O)[O-])s1`
NO
